# experimental_system: T1, Siglec-7-ECD (human, UniProt Q9Y286 19-353)
# T1 construct: also called p75; AIRM
# T1 sequence (Q9Y286 19-353 limits assumed): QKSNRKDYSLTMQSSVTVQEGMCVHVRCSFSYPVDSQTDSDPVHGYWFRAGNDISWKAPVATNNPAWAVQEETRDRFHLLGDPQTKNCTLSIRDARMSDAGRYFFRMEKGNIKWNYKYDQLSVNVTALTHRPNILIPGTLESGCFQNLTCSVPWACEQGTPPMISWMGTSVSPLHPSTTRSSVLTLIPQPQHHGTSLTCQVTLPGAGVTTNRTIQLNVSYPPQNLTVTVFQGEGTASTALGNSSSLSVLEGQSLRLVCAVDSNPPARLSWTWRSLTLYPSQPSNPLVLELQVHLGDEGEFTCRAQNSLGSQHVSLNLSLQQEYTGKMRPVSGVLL
# procedure_details: bio-layer interferometry (ForteBio): antibody captured on the sensor, Siglec-7-ECD as analyte, 1:1 global fit
measure_name: Kd (pM)
Give just the number in pM; leave the unit off.

Form field: reported Kd of 5G10 (antibody, V domains shown) VH: EVKLEESGGGLVQPGGSMKVSCVASGFTFSNYWMNWVRQSPEKGLEWVAQIRLKSDNYATHYAESVKGRFTISRDDSKSSVYLQMNNLRAEDTGIYYCTEGDYDIFAYWGQGTLVTVSA VL: DIQMTQTTSSLSASLGDRVTISCSASQGITNYLNWYQQKPDGTVKLLIYYTSILHSGVPSRFSGSGSGTDYSLTISNLEPEDIATYYCQQYSKPPYTFGGGTKLEIK
1
